# TL1A Binding Level (Early) values compiled below
Target: T1, human TL1A extracellular domain with N-terminal HIS and FLAG tag (human, UniProt O95150 72-251)
T1 construct: whole entry named. ~70 kDa fraction purified by gel filtration
T1 sequence: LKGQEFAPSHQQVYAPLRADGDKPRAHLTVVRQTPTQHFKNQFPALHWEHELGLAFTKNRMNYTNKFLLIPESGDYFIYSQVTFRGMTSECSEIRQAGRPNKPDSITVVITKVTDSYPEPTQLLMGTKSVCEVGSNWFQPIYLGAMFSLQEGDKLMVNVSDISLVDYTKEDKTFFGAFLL
Assay: SPR run 2; supernatant on Protein A; TL1A 10 ug/mL; timepoint 44
Quantity measured: TL1A Binding Level (Early) (RU)

| Binder | Quantity measured | Assay value |
| --- | --- | --- |
| 320-195 (antibody, human IgG1, name in Kabat numbering, V domains shown, human IgG1, lambda) VH: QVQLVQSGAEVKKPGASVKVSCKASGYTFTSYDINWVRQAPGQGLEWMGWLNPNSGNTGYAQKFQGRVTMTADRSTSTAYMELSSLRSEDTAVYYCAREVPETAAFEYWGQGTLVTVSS VL: QSVLTQPPSVSGAPGQRVTISCDSSSSDIGAGLGVHWYQQLPGTAPKLLIEGYYNRPSGVPDRFSGSKSGTSASLTITGLLPEDEGDYYCQSYDGTLSALFGGGTKLTVLG | TL1A Binding Level (Early) | 249 |
| 320-194 (antibody, human IgG1, name in Kabat numbering, V domains shown, human IgG1, lambda) VH: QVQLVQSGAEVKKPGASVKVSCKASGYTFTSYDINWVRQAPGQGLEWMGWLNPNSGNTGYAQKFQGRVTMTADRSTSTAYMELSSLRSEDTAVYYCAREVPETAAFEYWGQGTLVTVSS VL: QSVLTQPPSVSGAPGQRVTISCQSSSSDIGAGLGVHWYQQLPGTAPKLLIEGYYNRPSGVPDRFSGSKSGTSASLTITGLLPEDEGDYYCQSYDGTLSALFGGGTKLTVLG | TL1A Binding Level (Early) | 247 |
| 320-240 (antibody, human IgG1, name in Kabat numbering, V domains shown, human IgG1, lambda) VH: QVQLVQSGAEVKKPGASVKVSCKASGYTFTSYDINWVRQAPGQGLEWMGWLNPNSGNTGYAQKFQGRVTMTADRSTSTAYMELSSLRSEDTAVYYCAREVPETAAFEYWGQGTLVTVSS VL: QSVLTQPPSVSGAPGQRVTISCTSSSSYIGAGLGVHWYQQLPGTAPKLLIEGYYNRPSGVPDRFSGSKSGTSASLTITGLLPEDEGDYYCQSYDGTLSALFGGGTKLTVLG | TL1A Binding Level (Early) | 230 |
| 320-198 (antibody, human IgG1, name in Kabat numbering, V domains shown, human IgG1, lambda) VH: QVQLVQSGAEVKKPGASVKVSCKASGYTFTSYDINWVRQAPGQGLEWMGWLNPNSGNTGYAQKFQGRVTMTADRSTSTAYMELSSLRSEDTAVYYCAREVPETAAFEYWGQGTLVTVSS VL: QSVLTQPPSVSGAPGQRVTISCLSSSSDIGAGLGVHWYQQLPGTAPKLLIEGYYNRPSGVPDRFSGSKSGTSASLTITGLLPEDEGDYYCQSYDGTLSALFGGGTKLTVLG | TL1A Binding Level (Early) | 262 |
| 320-235 (antibody, human IgG1, name in Kabat numbering, V domains shown, human IgG1, lambda) VH: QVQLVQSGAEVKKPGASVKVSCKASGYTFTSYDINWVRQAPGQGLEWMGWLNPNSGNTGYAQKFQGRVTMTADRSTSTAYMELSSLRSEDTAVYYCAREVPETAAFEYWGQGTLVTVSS VL: QSVLTQPPSVSGAPGQRVTISCTSSSSQIGAGLGVHWYQQLPGTAPKLLIEGYYNRPSGVPDRFSGSKSGTSASLTITGLLPEDEGDYYCQSYDGTLSALFGGGTKLTVLG | TL1A Binding Level (Early) | 256 |
| 320-241 (antibody, human IgG1, name in Kabat numbering, V domains shown, human IgG1, lambda) VH: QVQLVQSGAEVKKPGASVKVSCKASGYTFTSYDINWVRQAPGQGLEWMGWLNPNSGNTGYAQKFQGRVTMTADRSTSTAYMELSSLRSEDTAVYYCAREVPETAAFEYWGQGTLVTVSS VL: QSVLTQPPSVSGAPGQRVTISCTSSSSDAGAGLGVHWYQQLPGTAPKLLIEGYYNRPSGVPDRFSGSKSGTSASLTITGLLPEDEGDYYCQSYDGTLSALFGGGTKLTVLG | TL1A Binding Level (Early) | 179 |
| 320-219 (antibody, human IgG1, name in Kabat numbering, V domains shown, human IgG1, lambda) VH: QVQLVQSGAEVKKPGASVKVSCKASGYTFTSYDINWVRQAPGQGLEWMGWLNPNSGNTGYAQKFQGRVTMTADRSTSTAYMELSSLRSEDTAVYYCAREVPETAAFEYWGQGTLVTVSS VL: QSVLTQPPSVSGAPGQRVTISCTSSDSDIGAGLGVHWYQQLPGTAPKLLIEGYYNRPSGVPDRFSGSKSGTSASLTITGLLPEDEGDYYCQSYDGTLSALFGGGTKLTVLG | TL1A Binding Level (Early) | 243 |
| 320-192 (antibody, human IgG1, name in Kabat numbering, V domains shown, human IgG1, lambda) VH: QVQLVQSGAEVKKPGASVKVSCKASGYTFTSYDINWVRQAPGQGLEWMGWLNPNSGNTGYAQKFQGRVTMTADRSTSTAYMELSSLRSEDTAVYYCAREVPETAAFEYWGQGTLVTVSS VL: QSVLTQPPSVSGAPGQRVTISCASSSSDIGAGLGVHWYQQLPGTAPKLLIEGYYNRPSGVPDRFSGSKSGTSASLTITGLLPEDEGDYYCQSYDGTLSALFGGGTKLTVLG | TL1A Binding Level (Early) | 238 |
| 320-222 (antibody, human IgG1, name in Kabat numbering, V domains shown, human IgG1, lambda) VH: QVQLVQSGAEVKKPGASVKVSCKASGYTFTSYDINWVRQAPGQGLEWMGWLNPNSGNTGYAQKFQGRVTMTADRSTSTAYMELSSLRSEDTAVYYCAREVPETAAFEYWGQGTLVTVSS VL: QSVLTQPPSVSGAPGQRVTISCTSSLSDIGAGLGVHWYQQLPGTAPKLLIEGYYNRPSGVPDRFSGSKSGTSASLTITGLLPEDEGDYYCQSYDGTLSALFGGGTKLTVLG | TL1A Binding Level (Early) | 156 |
| 320-225 (antibody, human IgG1, name in Kabat numbering, V domains shown, human IgG1, lambda) VH: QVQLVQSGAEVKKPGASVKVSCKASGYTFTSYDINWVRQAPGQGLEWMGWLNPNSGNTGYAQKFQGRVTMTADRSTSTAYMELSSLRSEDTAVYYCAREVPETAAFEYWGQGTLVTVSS VL: QSVLTQPPSVSGAPGQRVTISCTSSSADIGAGLGVHWYQQLPGTAPKLLIEGYYNRPSGVPDRFSGSKSGTSASLTITGLLPEDEGDYYCQSYDGTLSALFGGGTKLTVLG | TL1A Binding Level (Early) | 267 |
